Give measured pKd for each item. Keep answers brief.
- assaySystem: FGFR3-IIIb (human)
- Sequence (chain, as listed by the source limits assumed): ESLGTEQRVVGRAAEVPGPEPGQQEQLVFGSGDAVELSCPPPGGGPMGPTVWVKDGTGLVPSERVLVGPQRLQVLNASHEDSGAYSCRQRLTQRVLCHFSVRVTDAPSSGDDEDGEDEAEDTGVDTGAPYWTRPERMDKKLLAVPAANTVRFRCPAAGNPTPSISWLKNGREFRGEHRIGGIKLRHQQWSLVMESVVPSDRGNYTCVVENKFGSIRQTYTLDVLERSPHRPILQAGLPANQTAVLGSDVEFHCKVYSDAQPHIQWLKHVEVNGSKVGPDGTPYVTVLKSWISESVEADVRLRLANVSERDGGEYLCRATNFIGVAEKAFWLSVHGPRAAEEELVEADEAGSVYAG
- procedureSummary: SPR (Biacore T100), IgG captured by anti-human Fc, FGFR flowed
Interpret pKd as the negative base-10 log of the concentration measured in mol/L.

Name the recorded pKd for 2B.1.73 (antibody, human IgG1, kappa, V domains shown) VH: EVQLVESGGGLVQPGGSLRLSCAASGFTFTSTGISWVRQAPGKGLEWVGRMIFYNGSTNYADSVKGRFTISADTSKNTAYLQMNSLRAEDTAVYYCARTYGIYDLYVDYTEYVMDYWGQGTLVTVSS VL: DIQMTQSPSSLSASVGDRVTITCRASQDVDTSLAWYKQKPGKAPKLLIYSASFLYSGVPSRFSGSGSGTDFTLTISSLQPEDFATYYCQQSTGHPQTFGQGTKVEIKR . 10.05

Lookup 2B.1.3.12 (antibody, human IgG1, kappa, V domains shown) VH: EVQLVESGGGLVQPGGSLRLSCAASGFPFTSTGISWVRQAPGKGLEWVGRTHLGDGSTNYADSVKGRFTISADTSKNTAYLQMNSLRAEDTAVYYCARTYGIYDTYDMYTEYVMDYWGQGTLVTVSS VL: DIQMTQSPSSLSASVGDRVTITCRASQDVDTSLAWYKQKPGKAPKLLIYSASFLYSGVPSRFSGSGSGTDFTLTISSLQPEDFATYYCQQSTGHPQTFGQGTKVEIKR 9.30
